# Tested on: Escherichia coli TOP10;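 further: peptides expressed intracellularly from a pBAD plasmid library in pooled LB shake-flask culture, induced with 0.3% L-arabinose, DNA abundance read by NGS, three biological replicates, DESeq2 with apeglm shrinkage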
# experimentDescription: shrunken log2 fold change of peptide-encoding DNA abundance (4.5 h post-induction vs induction); higher = less antimicrobial activity (less host growth inhibition)
# studyConditions: time post-induction: 4.5 h; library: site-saturation at positions 5, 18, 19, 20
Everything with shrunken log2 fold change lower than -0.005 is label 0; everything else, including exactly -0.005, is label 1.

RRIRRRPPRLPRPRPRPAFLPRP    label 0
RRIRSRPPRLPRPRPRPTRCPRP    label 1

### Prompt Identify whether the reported shrunken log2 fold change of the following sequence is -0.005 or greater: RRIRDRPPRLPRPRPRPKREPRP
### Response label 0

### Prompt Decide: shrunken log2 fold change of RRIRRRPPRLPRPRPRPSIVPRP >= -0.005?
### Response label 1

### Prompt Form field: shrunken log2 fold change at least -0.005? Entry: RRIRHRPPRLPRPRPRPENSPRP
### Response label 0

### Prompt Check this sequence for shrunken log2 fold change at or above -0.005: RRIRERPPRLPRPRPRPTDFPRP
### Response label 0

### Prompt State whether the measured shrunken log2 fold change reaches -0.005, counting equality as reaching it, for RRIRTRPPRLPRPRPRPDFSPRP
### Response label 0

### Prompt Does shrunken log2 fold change meet or surpass -0.005 for RRIRARPPRLPRPRPRPNDMPRP ?
### Response label 1

### Prompt Could you tell me if the measured shrunken log2 fold change of RRIRPRPPRLPRPRPRPRHNPRP reaches -0.005 or more?
### Response label 0

### Prompt Hello, I need to know if RRIRDRPPRLPRPRPRPLIHPRP has measured shrunken log2 fold change not below -0.005. Thanks!
### Response label 0

### Prompt Exam item: decide whether the reported shrunken log2 fold change for RRIRVRPPRLPRPRPRPFGEPRP is at least -0.005.
### Response label 1
